Tested on: HCI01 (cells of a triple-negative basal-like breast cancer xenograft);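 also: PDX cells carrying CMV promoter-driven luciferase, viability read as total photon flux per second by IVIS imaging following D-luciferin, vehicle control 0.1% DMSO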
Assay: cell viability (% of vehicle); higher = less cytotoxic
Settings: 10 µM; 72 h

molecule	testTarget	cell viability
Cc1nnc(NS(=O)(=O)c2ccc(N)cc2)s1	HCI01	102
CCN(CC)CCNC(=O)c1c(C)[nH]c(C=C2C(=O)Nc3ccc(F)cc32)c1C.O=C(O)CC(O)C(=O)O [Sunitinib malate]	HCI01	37.7
O=C(NN=Cc1ccc([N+](=O)[O-])o1)c1ccc(O)cc1 [Nifuroxazide]	HCI01	63.5
Oc1c(Cl)cc(Cl)c2cccnc12	HCI01	36.5

====

Test system: WHIM2 (cells of a triple-negative basal-like breast cancer xenograft)
Test: cell viability of combination (% of vehicle); higher = less cytotoxic
Conditions: 1 µM; 72 h; partner dose: 10 nM
Friendly reminder: cell viability of combination below 40 is True, at or above is False.

compound	classLabel
CS(=O)(=O)CCNCc1ccc(-c2ccc3ncnc(Nc4ccc(OCc5cccc(F)c5)c(Cl)c4)c3c2)o1.Cc1ccc(S(=O)(=O)O)cc1.Cc1ccc(S(=O)(=O)O)cc1 [Lapatinib Ditosylate] + CN(C)C/C=C/C(=O)Nc1cc2c(Nc3ccc(F)c(Cl)c3)ncnc2cc1O[C@H]1CCOC1	True
CC(=O)C1(O)Cc2c(O)c3c(c(O)c2C(OC2CC(N)C(O)C(C)O2)C1)C(=O)c1ccccc1C3=O.Cl (stereo unspecified) [Idarubicin HCl] + CN(C)C/C=C/C(=O)Nc1cc2c(Nc3ccc(F)c(Cl)c3)ncnc2cc1O[C@H]1CCOC1	True
N.N.O=C([O-])C1(C(=O)[O-])CCC1.[Pt+2] [Carboplatin] + CN(C)C/C=C/C(=O)Nc1cc2c(Nc3ccc(F)c(Cl)c3)ncnc2cc1O[C@H]1CCOC1	False
CC1CC(=O)NN=C1c1ccc(NN=C(C#N)C#N)cc1 (stereo unspecified) [Levosimendan] + CN(C)C/C=C/C(=O)Nc1cc2c(Nc3ccc(F)c(Cl)c3)ncnc2cc1O[C@H]1CCOC1	False
CCc1c(Cl)c(O)c(Cl)c(O)c1C(=O)OC1C(C)OC(OCC2=CC=CCC(O)C(C)=CC(CC)C(OC3OC(C)(C)C(OC(=O)C(C)C)C(O)C3O)C(C)=CC(C)=CCC(C(C)O)OC2=O)C(OC)C1O (stereo unspecified) [Fidaxomicin] + CN(C)C/C=C/C(=O)Nc1cc2c(Nc3ccc(F)c(Cl)c3)ncnc2cc1O[C@H]1CCOC1	False
Cl.Cl.O=C1c2c(O)ccc(O)c2C(=O)c2c(NCCNCCO)ccc(NCCNCCO)c21 [Mitoxantrone HCl] + CN(C)C/C=C/C(=O)Nc1cc2c(Nc3ccc(F)c(Cl)c3)ncnc2cc1O[C@H]1CCOC1	True
Cc1c(-c2ccc(O)cc2)n(Cc2ccc(OCCN3CCCCCC3)cc2)c2ccc(O)cc12.Cl [Bazedoxifene HCl] + CN(C)C/C=C/C(=O)Nc1cc2c(Nc3ccc(F)c(Cl)c3)ncnc2cc1O[C@H]1CCOC1	False
Cl.O.O=C1Cc2cc(CCN3CCN(c4nsc5ccccc45)CC3)c(Cl)cc2N1 [Ziprasidone hydrochloride monohydrate] + CN(C)C/C=C/C(=O)Nc1cc2c(Nc3ccc(F)c(Cl)c3)ncnc2cc1O[C@H]1CCOC1	False
CCN(CC)CCCC(C)Nc1ccnc2cc(Cl)ccc12.O=P(O)(O)O.O=P(O)(O)O (stereo unspecified) [Chloroquine diphosphate] + CN(C)C/C=C/C(=O)Nc1cc2c(Nc3ccc(F)c(Cl)c3)ncnc2cc1O[C@H]1CCOC1	True
C=C1C(=CC=C2CCCC3(C)C2CCC3C(C)CCCC(C)C)CC(O)CC1O (stereo unspecified) [Alfacalcidol] + CN(C)C/C=C/C(=O)Nc1cc2c(Nc3ccc(F)c(Cl)c3)ncnc2cc1O[C@H]1CCOC1	True
C1=C\COCc2cc(ccc2OCCN2CCCC2)Nc2nccc(n2)-c2cccc(c2)COC/1 [Pacritinib] + CN(C)C/C=C/C(=O)Nc1cc2c(Nc3ccc(F)c(Cl)c3)ncnc2cc1O[C@H]1CCOC1	True
CC(C)C[C@H](NC(=O)[C@H](Cc1ccccc1)NC(=O)c1cnccn1)B(O)O [Bortezomib] + CN(C)C/C=C/C(=O)Nc1cc2c(Nc3ccc(F)c(Cl)c3)ncnc2cc1O[C@H]1CCOC1	True
COc1ccc(CN2CCN(C(c3ccc(F)cc3)c3ccc(F)cc3)CC2)c(OC)c1OC.Cl.Cl [Lomerizine HCl] + CN(C)C/C=C/C(=O)Nc1cc2c(Nc3ccc(F)c(Cl)c3)ncnc2cc1O[C@H]1CCOC1	False
COCCn1c2c([n+](Cc3cnccn3)c1C)C(=O)c1ccccc1C2=O.[Br-] + CN(C)C/C=C/C(=O)Nc1cc2c(Nc3ccc(F)c(Cl)c3)ncnc2cc1O[C@H]1CCOC1	True
CC[C@@]1(O)C(=O)OCc2c1cc1n(c2=O)Cc2cc3c(CN(C)C)c(O)ccc3nc2-1.Cl [Topotecan HCl] + CN(C)C/C=C/C(=O)Nc1cc2c(Nc3ccc(F)c(Cl)c3)ncnc2cc1O[C@H]1CCOC1	True
